# experiment_description: physchem
# cond: organic solvent or mixture, thermodynamic from solid, approximate concentration in ethanol at which completely solubilised
recorded_endpoint: solubility

Reported solubility of O=C1CCc2ccc(OCCCCN3CCN(c4cccc(Cl)c4Cl)CC3)cc2N1 : ~2.2 mg/mL

###

# experiment_description: Solubility of APIs in ethanol water mixtures
# Type: physicochemical
# cond: ethanolic solution added to 50:50 EtOH:H2O
recorded_endpoint: Soluble in EtOH/H2O mixture

The cases that follow already have their Soluble in EtOH/H2O mixture on record.
Cc1cccc(C)c1OCC(=O)N[C@@H](Cc1ccccc1)[C@@H](O)C[C@H](Cc1ccccc1)NC(=O)[C@H](C(C)C)N1CCCNC1=O; Yes
O=C1CCc2ccc(OCCCCN3CCN(c4cccc(Cl)c4Cl)CC3)cc2N1; No
O=C1NC(=O)C(c2ccccc2)(c2ccccc2)N1; Yes
c1ccc(-c2ccc(C(c3ccccc3)n3ccnc3)cc2)cc1 (centres unmarked); Yes

Please look at the following compound next.
Reported Soluble in EtOH/H2O mixture of O=C1[C@H](CC[C@H](O)c2ccc(F)cc2)[C@@H](c2ccc(O)cc2)N1c1ccc(F)cc1 : Yes
